- PROTOCOL_NOTES: Selectivity index, ratio of CC50 for human MT4 cells to EC50 for Human coxsackievirus B2 Ohio-1
- Type: toxicity, cell-based
- CONDITION_SUMMARY: read-out: Ratio CC50/EC50

ITEM_SMILES | LIMIT_QUALIFIER | selectivity ratio
COc1cc(OC)cc(-c2nc3cc(C(F)(F)F)ccc3[nH]2)c1 | = | 6.3
CC(=O)Nc1ccc(-c2nc3cc(C(F)(F)F)ccc3[nH]2)cc1 | = | 6.3
CCC(=O)Nc1ccc(-c2nc3cc(C(F)(F)F)ccc3[nH]2)cc1 | ≥ | 25
O=C(CN1CCCC1)Nc1ccc(-c2nc3cc(Cl)c(Cl)cc3[nH]2)cc1 | = | 5.3
CC(=O)Nc1ccc(-c2nc3cc(C(F)(F)F)ccc3n2C)cc1 | = | 6
COc1cccc(-c2nc3cc(C(F)(F)F)ccc3[nH]2)c1 | = | 4.8

----------
- PROTOCOL_NOTES: Cytotoxicity against human HuH7 cells after 72 hrs
- Assay type: cell-based, Huh-7
METRIC_NAME: CC50 at 72 h

ITEM_SMILES | MEAS_VALUE
CC(=O)Nc1ccc(-c2nc3cc([N+](=O)[O-])ccc3[nH]2)cc1 | > 90 µM
CC(=O)Nc1ccc(-c2nc3cc(Cl)c(Cl)cc3[nH]2)cc1 | > 75 µM

----------
- PROTOCOL_NOTES: Selectivity index, ratio of CC50 for human MT4 cells to EC50 for Bovine viral diarrhea virus NADL
- Format: toxicity, cell-based
- CONDITION_SUMMARY: read-out: Ratio CC50/EC50
Lab note: compare selectivity ratio against 6. Equal or greater, write rule met. Smaller, write rule not met.

ITEM_SMILES | ASSIGNED_CLASS
CC(=O)Nc1ccc(-c2nc3cc([N+](=O)[O-])ccc3[nH]2)cc1 | rule met
Nc1ccc(-c2nc3cc([N+](=O)[O-])ccc3[nH]2)cc1 | rule met
CC(=O)Nc1ccc(-c2nc3cc(Cl)c(Cl)cc3[nH]2)cc1 | rule met
CCN(CC)CC(=O)Nc1ccc(-c2nc3cc(C(F)(F)F)ccc3[nH]2)cc1 | rule not met
Nc1ccc(-c2nc3cc(Cl)c(Cl)cc3[nH]2)cc1 | rule met
CC(=O)Nc1ccc(-c2nc3cc(C(F)(F)F)ccc3[nH]2)cc1 | rule met

----------
- Tested on: Coxsackievirus B2
- PROTOCOL_NOTES: Antiviral activity against Human coxsackievirus B2 Ohio-1 infected in african green monkey Vero cells after 3 days by plaque reduction assay
- Assay type: functional, organism-based, Coxsackievirus B2 (strain Ohio-1)
- CONDITION_SUMMARY: Enterovirus B, Vero, 72 h
pEC50: −log10 of the molar value.
Listed compounds paired with reported pEC50

ITEM_SMILES | LIMIT_QUALIFIER | pEC50
O=C(Nc1ccc(-c2nc3cc(C(F)(F)F)ccc3[nH]2)cc1)Nc1ccc(-c2nc3cc(C(F)(F)F)ccc3[nH]2)cc1 | < | 4.00
O=C(CN1CCCCC1)Nc1ccc(-c2nc3cc(C(F)(F)F)ccc3[nH]2)cc1 | = | 5.05
O=C(O)CCC(=O)Nc1ccc(-c2nc3cc(C(F)(F)F)ccc3[nH]2)cc1 | < | 4.00
COc1ccc(-c2nc3cc(C(F)(F)F)ccc3[nH]2)c(OC)c1 | = | 4.49
COc1ccc(-c2nc3cc(C(F)(F)F)ccc3[nH]2)c(OC)c1OC | = | 4.80

Data origin: ChEMBL document CHEMBL1156237
